- assay details: Phase 1 crossover pharmacokinetic study of Compound of Formula (II) formulations in healthy adult participants
- experimental parameters: human, in vivo, oral, 4 mg, following multiple doses of 4 mg of compound of Formula (II), preliminary data
Listed next: entries and their corresponding AUC(0-t).
A number alone suffices; assume ng·h/mL.

Record excerpt, results attached:
compound: O=C(O)CCC(=O)NC(=O)N1CCC(=Cc2cccc(Oc3ccc(C(F)(F)F)cn3)c2)CC1
value units: ng·h/mL
value measured: 281
--
compound: O=C1CCC(NC(=O)N2CCC(=Cc3cccc(Oc4ccc(C(F)(F)F)cn4)c3)CC2)=NN1
value units: ng·h/mL
value measured: 906

Okay, next one:
Ask | Which value of AUC(0-t) has been reported for O=C(Nc1cccnn1)N1CCC(=Cc2cccc(Oc3ccc(C(F)(F)F)cn3)c2)CC1 [Compound of Formula (II), reference compound] in the records?
Reply | 1340

* * *

Listed next: entries and their corresponding IC50.
- measurement target: Rat FAAH (Rattus norvegicus, UniProt P97612)
- Construct: truncated rat FAAH encoding amino acids residues 30-579; 6xHis (N); TEV cleavage site (N)
- Sequence (P97612 30-579): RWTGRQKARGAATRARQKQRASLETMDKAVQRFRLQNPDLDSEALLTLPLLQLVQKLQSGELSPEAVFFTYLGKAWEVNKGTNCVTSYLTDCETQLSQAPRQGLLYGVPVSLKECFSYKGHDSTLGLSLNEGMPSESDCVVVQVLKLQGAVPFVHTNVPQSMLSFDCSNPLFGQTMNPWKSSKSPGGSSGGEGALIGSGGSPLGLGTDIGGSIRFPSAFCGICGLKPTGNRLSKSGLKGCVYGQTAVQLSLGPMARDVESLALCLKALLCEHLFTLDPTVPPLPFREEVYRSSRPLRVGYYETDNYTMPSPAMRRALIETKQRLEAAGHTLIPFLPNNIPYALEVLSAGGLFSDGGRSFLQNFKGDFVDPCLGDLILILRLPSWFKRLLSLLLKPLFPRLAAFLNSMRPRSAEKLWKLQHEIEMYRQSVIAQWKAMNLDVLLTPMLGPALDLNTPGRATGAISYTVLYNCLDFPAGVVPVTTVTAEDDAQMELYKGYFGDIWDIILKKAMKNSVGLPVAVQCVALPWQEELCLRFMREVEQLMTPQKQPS
- assay details: Fluorometric-based Rat FAAH Inhibition Assay
- experimental parameters: recombinant rat FAAH 20 nM, 1 hour preincubation, 2 μM AMC Arachidonoyl Amide substrate
A number alone suffices; assume µM.

Record excerpt, results attached:
compound: O=C(Nc1cccnn1)N1CC/C(=C\c2cccc(Oc3ccc(C(F)(F)F)cn3)c2)[C@H](O)C1 [Compound A-SE]
value units: µM
value measured: 3.72
//
compound: O=C(O)CCC(=O)NC(=O)N1CCC(=Cc2cccc(Oc3ccc(C(F)(F)F)cn3)c2)CC1 [Compound C]
value units: µM
value measured: 0.0396
//
compound: O=C(Nc1cccnn1)N1CCC(O)(C(O)c2cccc(Oc3ccc(C(F)(F)F)cn3)c2)CC1 (stereo not shown) [Compound D]
value units: µM
value measured: 3.48

Ask | Which value of IC50 has been reported for O=C(Nc1cccnn1)N1CC/C(=C/c2cccc(Oc3ccc(C(F)(F)F)cn3)c2)[C@H](O)C1 [Compound A-SZ] in the records?
Reply | 3.29
